Cited source for all entries: PubChem BioAssay AID687014

# Test system: Nuclear hormone receptor DAF-12 (Heterodera glycines), GAL4 fusion
# PROTOCOL NOTES: H. glycines DAF-12 receptor agonists, primary screen, cell-based, luminescence, HEK293, GAL4 fusion, UAS-luciferase (AID 687014);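 note: 0% = DMSO wells and 100% = sodium butyrate wells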
# EXPERIMENTAL SETUP: HEK293 GAL4-hgDAF12 UAS-luciferase reporter, agonist luminescence; at 6.8 µM; stronger effect = higher value; normalized to butyrate control
Out of some 370,000 compounds screened, about 6,800 (1.8%) were called active. This excerpt belongs to a sample that is enriched for actives.
ASSAY ENDPOINT: activation (%)
One number for each entry, in %.

CCCN(CCC)c1ccc(C(O)c2nnc(-c3ccccc3)o2)cc1 (stereo unspecified) ... -0.77
COc1ccc(C(=O)Nc2ccnn2C2CCN(Cc3ccncc3)CC2)cc1 ... -1.76
Cc1cc(Br)cn2c(Cc3ccccc3C(F)(F)F)c(-c3ccc(Cl)cc3)nc12 ... 0.95
Nc1[nH]c(/C=C2/CCCCC2n2[nH]c(=O)n(-c3ccccc3)c2=O)c(Cc2ccccc2)[n+]1Cc1ccccc1 (stereo unspecified) ... 0.06
CC(=O)Nc1ccc(NC(=S)NC(=O)c2ccc([N+](=O)[O-])c(C)c2)cc1 ... -2.56

Dear reader, for each entry below, please note its activation.
1. Brc1ccccc1C1N=C(c2ccccc2)NO1 (stereo unspecified)
2. CCOC(=O)C1CCN(C(=O)C(C)(C)NC(=O)Nc2ccc(F)c(F)c2)CC1

20.2
-0.28

Take each entry in turn and give its activation.
1. COc1cc(/C=C/C(=O)n2cnc3ccccc32)cc(OC)c1OC
2. Brc1ccc(/C=N/N2CCN(C3c4ccccc4-c4ccccc43)CC2)s1
3. COc1ccc(C(=O)Nc2sc(C)c(C)c2CN2CCOCC2)cc1
4. Fc1ccccc1-c1cc2cc3c(cc2cn1)OCO3
5. O=C(NCCS(=O)(=O)N1CCN(c2ccccc2F)CC1)c1ccc(Br)o1
6. COC[C@@H]1CCCN1c1ccc2c(c1)O[C@H](C)CCN(C1CC1)S2(=O)=O
7. Cc1cccc(NC(=O)C[C@H]2CC[C@H]3[C@@H](COc4ccc(NC(=O)Nc5ccccc5)cc4C(=O)N3C)O2)c1
8. C/C(=N\NC(=O)OC(C)(C)C)c1ccc[nH]1

1: -6.48; 2: 0.61; 3: 11.8; 4: 16.3; 5: 0.09; 6: 1.95; 7: -1.77; 8: 13.9

For each of the molecules below, note its activation.
1. Fc1ccc(-c2ccc(CNCc3ccccn3)o2)cc1Cl
2. O=S(=O)(c1ccc(Br)cc1)c1nc(-c2ccccc2)oc1N1CCOCC1

1. -0.65
2. -0.08
